Provide the recorded pIC50 for the entries that follow.
Scale: pIC50 equals -log10([C]), with [C] in mol/L.

Simply: CCCCC1=C(C)Cc2c1nc1ccccc1c2N , UniProt P06276, pIC50 = 4.38

Readout pIC50 for Nc1c2c(nc3ccccc13)-c1ccccc1CC2 , test system UniProt P06276, was 5.48

Record for Nc1c2c(nc3ccccc13)CCCCC2 under target or system UniProt P06276: pIC50 reported as 7.85

Reading of pIC50 for Nc1c2c(nc3ccccc13)-c1ccccc1NCC2 with UniProt P06276: 4.72

The molecule Nc1c2c(nc3ccccc13)CCCc1ccccc1-2 , when measured on UniProt P06276, yielded pIC50 of 4.58

The molecule Nc1c2c(nc3ccccc13)CCCCCC2 on UniProt P06276: pIC50 was 5.64

Tested on UniProt P06276, the item CCCCC1(O)c2nc3ccccc3c(N)c2CC1C (configuration not stated) showed pIC50 equal to 4.09

Lab note: molecule Nc1c2c(nc3ccccc13)CCC2 tested on UniProt P06276; recorded pIC50 was 7.28

UniProt P06276 assay, molecule Nc1c2c(nc3ccccc13)-c1ccccc1C2 , recorded pIC50 = 5.51

Measured pIC50 (UniProt P06276), entry CC1Cc2c(nc3ccccc3c2N)C1(C)O (configuration not stated) : 4.91

Form: item Nc1c2c(nc3ccccc13)-c1ccccc1NCCC2 ; test system UniProt P06276; pIC50: 5.17

GET /values?item= Nc1c2c(nc3ccccc13)C1CCC2C1 (configuration not stated) &system= UniProt P06276 returns pIC50: 7.39

The observed pIC50 for CC1=C(C)c2nc3ccccc3c(N)c2C1 when tested with UniProt P06276 stands at 5.23

// returns pIC50 for CC12CCC(c3c1nc1ccccc1c3N)C2(C)C (configuration not stated) with UniProt P06276; value = 4.06

Measured on UniProt P06276, Nc1c2c(nc3ccccc13)-c1ccccc1CCC2 has a documented pIC50 of 4.44

Value (pIC50, UniProt P06276) for record Nc1c2c(nc3ccccc13)-c1cccc(Cl)c1CC2 = 4.99

---

Target: Acetylcholinesterase (Rattus norvegicus, UniProt P37136)
Sequence (P37136 whole entry): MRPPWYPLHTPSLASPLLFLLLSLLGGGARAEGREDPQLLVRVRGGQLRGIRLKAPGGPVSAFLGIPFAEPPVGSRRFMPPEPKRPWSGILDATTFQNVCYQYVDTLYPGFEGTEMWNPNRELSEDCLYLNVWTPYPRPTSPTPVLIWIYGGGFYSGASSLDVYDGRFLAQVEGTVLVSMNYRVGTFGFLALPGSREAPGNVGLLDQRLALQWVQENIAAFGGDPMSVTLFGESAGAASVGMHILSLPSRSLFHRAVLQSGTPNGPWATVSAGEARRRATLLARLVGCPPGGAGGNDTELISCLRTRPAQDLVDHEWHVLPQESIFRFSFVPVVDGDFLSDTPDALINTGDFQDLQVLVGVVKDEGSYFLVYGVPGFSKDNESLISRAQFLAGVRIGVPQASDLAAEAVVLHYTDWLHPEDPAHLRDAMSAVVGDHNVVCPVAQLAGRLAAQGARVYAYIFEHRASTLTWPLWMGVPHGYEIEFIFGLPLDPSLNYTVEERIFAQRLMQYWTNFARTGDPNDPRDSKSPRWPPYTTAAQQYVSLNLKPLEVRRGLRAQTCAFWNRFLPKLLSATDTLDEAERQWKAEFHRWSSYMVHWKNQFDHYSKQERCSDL
Assay endpoint: pIC50
# pIC50 is unitless: minus log10 of the molar concentration; print number only

Form: compound = CC1Cc2c(nc3ccccc3c2N)C1(C)O (configuration not stated) ; pIC50 = 3.87

Nc1c2c(nc3ccccc13)CCCCC2 has a reported pIC50 of 7.41

response.value for COc1ccc2c(c1)CCc1c-2nc2ccccc2c1N (field: pIC50) = 4.32

Noted for Nc1c2c(nc3ccccc13)-c1cccc(Cl)c1CC2 : its pIC50 reads 3.84

Memo: CCCCC1=C(C)Cc2c1nc1ccccc1c2N , reported pIC50: 4.60

Input Nc1c2c(nc3ccccc13)-c1ccccc1NCC2 . Output pIC50: 4.16

Entry CC1=C(C)c2nc3ccccc3c(N)c2C1 , pIC50 reported as 5.46

---

For each of the molecules below, state its IC50.
// return numeric value only (unit: nM, not printed)

The value of IC50 recorded for Nc1c2c(nc3ccccc13)-c1ccccc1CC2 when tested on Norepinephrine transporter (Rattus norvegicus, UniProt Q9WTR4) reads 12100

Nc1c2c(nc3ccccc13)CCCCC2 on Norepinephrine transporter (Rattus norvegicus, UniProt Q9WTR4) gives IC50 = 6900

# IC50 measured on Norepinephrine transporter (Rattus norvegicus, UniProt Q9WTR4) for item Nc1c2c(nc3ccccc13)-c1ccccc1C2 = 2300

Per the reported Norepinephrine transporter (Rattus norvegicus, UniProt Q9WTR4) data, COc1ccc2c(c1)CCc1c-2nc2ccccc2c1N has IC50 of 1400

The recorded IC50 with Norepinephrine transporter (Rattus norvegicus, UniProt Q9WTR4) for Nc1c2c(nc3ccccc13)-c1cccc(Cl)c1CC2 was 41000

Let me check: Nc1c2c(nc3ccccc13)CCCCCC2 , system Norepinephrine transporter (Rattus norvegicus, UniProt Q9WTR4), measured IC50 is 800

Tested on Norepinephrine transporter (Rattus norvegicus, UniProt Q9WTR4), the item Nc1c2c(nc3ccccc13)-c1ccccc1CCC2 showed IC50 equal to 1800

---

biological target: Sodium-dependent serotonin transporter (Rattus norvegicus)
Sequence (P31652 whole entry): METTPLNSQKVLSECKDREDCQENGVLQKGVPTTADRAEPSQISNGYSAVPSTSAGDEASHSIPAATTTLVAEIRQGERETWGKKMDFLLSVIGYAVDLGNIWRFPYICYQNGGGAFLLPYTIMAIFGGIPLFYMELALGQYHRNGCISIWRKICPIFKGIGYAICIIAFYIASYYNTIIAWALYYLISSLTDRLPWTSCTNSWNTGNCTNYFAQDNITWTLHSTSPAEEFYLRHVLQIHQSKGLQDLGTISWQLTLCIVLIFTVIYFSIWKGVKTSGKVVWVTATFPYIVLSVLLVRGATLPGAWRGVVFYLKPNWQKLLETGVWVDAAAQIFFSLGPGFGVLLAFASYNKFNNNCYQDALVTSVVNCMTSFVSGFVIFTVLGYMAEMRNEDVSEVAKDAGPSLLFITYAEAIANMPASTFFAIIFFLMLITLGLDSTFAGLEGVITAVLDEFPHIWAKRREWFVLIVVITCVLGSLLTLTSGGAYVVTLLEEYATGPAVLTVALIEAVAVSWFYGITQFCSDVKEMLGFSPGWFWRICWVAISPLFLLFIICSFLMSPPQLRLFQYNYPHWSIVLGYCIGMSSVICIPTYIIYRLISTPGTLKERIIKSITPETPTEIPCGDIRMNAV
The label criterion met is reserved for IC50 strictly under 10 µM; criterion not met covers values equal to or above it.

Query string: # check: IC50 < 10 µM for Nc1c2c(nc3ccccc13)-c1cccc(Cl)c1CC2
Result string: criterion not met

Query string: IC50 under 10 µM? Item: CCCCC1=C(C)Cc2c1nc1ccccc1c2N
Result string: criterion not met

Query string: Say whether its IC50 is strictly beneath 10 µM. Entry: Nc1c2c(nc3ccccc13)-c1ccccc1NCCC2
Result string: criterion met

Query string: Quick check: does Nc1c2c(nc3ccccc13)CCCc1ccccc1-2 have IC50 under 10 µM?
Result string: criterion met

Query string: A record lists COc1ccc2c(c1)CCc1c-2nc2ccccc2c1N . Is its IC50 below 10 µM?
Result string: criterion met

Query string: Does CC12CCC(c3c1nc1ccccc1c3N)C2(C)C (stereo not drawn) have IC50 strictly under 10 µM?
Result string: criterion not met

Query string: Lab log: compare recorded IC50 with 10 µM; is it strictly lower for Nc1c2c(nc3ccccc13)-c1ccccc1CC2 ?
Result string: criterion met

Query string: Please state whether IC50 is below 10 µM for Nc1c2c(nc3ccccc13)C1CCC2C1 (stereo not drawn)
Result string: criterion met

Query string: Say whether its IC50 is strictly beneath 10 µM. Entry: CC1=C(C)c2nc3ccccc3c(N)c2C1
Result string: criterion met

Query string: Given COc1ccc2c(c1)CCCc1c-2nc2ccccc2c1N , is recorded IC50 strictly lower than 10 µM?
Result string: criterion met

Query string: State whether 10 µM exceeds IC50 recorded for Nc1c2c(nc3ccccc13)-c1ccccc1C2 .
Result string: criterion met

Query string: Input Nc1c2c(nc3ccccc13)-c1ccccc1NCC2 ; condition: IC50 strictly below 10 µM. Does it hold?
Result string: criterion met

Query string: Would you kindly verify if IC50 of Nc1c2c(nc3ccccc13)CCC2 is strictly less than 10 µM?
Result string: criterion not met

---

Assay endpoint: pIC50
Interpret pIC50 as the negative base-10 log of the concentration measured in mol/L.

Nc1c2c(nc3ccccc13)-c1ccccc1CCC2 on Acetylcholinesterase (Rattus norvegicus) gives pIC50 = 3.78

Kindly note: Acetylcholinesterase (Rattus norvegicus), CCCCC1(O)c2nc3ccccc3c(N)c2CC1C (centres undefined) , pIC50 value reported: 4.04

The observed pIC50 for Nc1c2c(nc3ccccc13)-c1ccccc1NCCC2 when tested with Acetylcholinesterase (Rattus norvegicus) stands at 3.41

The reported Acetylcholinesterase (Rattus norvegicus) pIC50 of CC12CCC(c3c1nc1ccccc1c3N)C2(C)C (centres undefined) is 3.96

---

molecular target: UniProt:P31652
Assay endpoint: pIC50
Reminder that pIC50 is minus the log10 of a molar concentration.

Assay UniProt:P31652, sample Nc1c2c(nc3ccccc13)CCCCC2 , pIC50 read: 5.44

# pIC50 measured on UniProt:P31652 for item Nc1c2c(nc3ccccc13)CCCCCC2 = 5.96

Fill in: UniProt:P31652 pIC50 for CC1Cc2c(nc3ccccc3c2N)C1(C)O (stereo unspecified) = 5.36

The reported UniProt:P31652 pIC50 of CCCCC1(O)c2nc3ccccc3c(N)c2CC1C (stereo unspecified) is 5.15

Simply: Nc1c2c(nc3ccccc13)-c1ccccc1CCC2 , UniProt:P31652, pIC50 = 5.33
